# assay comment: folding stability dG unfold (combined trypsin and chymotrypsin); higher = more stable

{"record sequence": "SAGGTIYIFIPGLTAEEILKFIAEEFPGHENVTIFWPKGYYVKITVDNGNIKIDKVQPMRPMPPGDPSAGGS [r8_225_TrROS]", "folding stability dG unfold": "2.99 kcal/mol"}
{"record sequence": "SAGGKLPKLPPGQIEIMDFQIEPDPDGRYKMSFMITITAPDNGKKVVVMLEMWMPPDGEMKTGIGIMPSAGG [r13_263_TrROS]", "folding stability dG unfold": "2.65 kcal/mol"}
{"record sequence": "SAGGMLPGEPEVELVLEIEIDVPPGEISAEELERLLRELFPGAEVVDVRVEEEGGKLRIEVVIRLPPSAGGS [r8_202_TrROS_Hall]", "folding stability dG unfold": "3.17 kcal/mol"}
{"record sequence": "SAGGSAGGSAGSEVEKARNAALEARRAGVEEVTITMPEELKEKVTALAKEEGINLKIESESAGGSAGGSAGG [r11_371_JUSTAS]", "folding stability dG unfold": "-0.351 kcal/mol"}
{"record sequence": "SAGGKIKIQFNGQEFTITEFEIIEPQPNKGGGPYYRIRIKFPNGPMEIMIPPNMPPEIKPGDTFTIASAGGS [r16_638_TrROS]", "folding stability dG unfold": "1.93 kcal/mol"}
{"record sequence": "SAGGSAGGSAGKIELTNIQVWPGPNGRPWISMTISFPDGPVTIWIPFDNPDNIEIEIKPGSAGGSAGGSAGG [r17_64_TrROS]", "folding stability dG unfold": "2.82 kcal/mol"}
{"record sequence": "SAGMELELELEFRLEDGLEVRIRVKVRFDPETGELVIEEVRIEVRPLPPPPPLVLTDEELEALGLEPEESAG [r5_393_TrROS_Hall]", "folding stability dG unfold": "3.6 kcal/mol"}
{"record sequence": "SAGQTITFELKDPDITPEELQKKLQKRFGMKPMNIKPVEPDPDGWRFVIEFPENGGTRTFPWEEIRELISAG [r5_550_TrROS]", "folding stability dG unfold": "1.03 kcal/mol"}
{"record sequence": "SAGGMTEELEITTPDNYKIKITKTLNPNTTKPTYTVKIYEKKSGKVLLEKEFSSLEEAEEFIKNGYGSAGGS [r8_450_TrMRF]", "folding stability dG unfold": "4.65 kcal/mol"}
{"record sequence": "SAGGSAGGSAVITLKPGETITITATITNADGSTVTITEVVRLPDGRLVVRVTNADGETYEFVLSAGGSAGGS [r12_31_TrROS_Hall]", "folding stability dG unfold": "3.44 kcal/mol"}
{"record sequence": "SAGGSSMQTTVFILPGPEVPVEEVKAKIAKELGLDFETVTFIPAPSREEAEALAAALGVDGIIVEVDSAGGS [r8_245_JUSTAS]", "folding stability dG unfold": "2.58 kcal/mol"}
{"record sequence": "SAGGSAGGSAGGMLFHFEIKDPNSDKEYEVLVEKPPSGKVLVTILKDNKEEVKVLPLELFSAGGSAGGSAGG [r11_952_JUSTAS]", "folding stability dG unfold": "-0.29 kcal/mol"}
{"record sequence": "SANMDMPPGFKPIARDDDITIWQNPNPVYIMIRGPDGKHKMLPFNPGDPEKIKDLIREFADDGITDIMISAG [r14_12_TrROS]", "folding stability dG unfold": "1.09 kcal/mol"}
{"record sequence": "SAGGSAGGSAGGVPPGAPELRLKVTVTVTTVELDEDTNELTTTTETVTVEVTVKVGETLSAGGSAGGSAGGS [r10_133_TrROS_Hall]", "folding stability dG unfold": "1.2 kcal/mol"}
